# assay_target: wild type human I Ks channel (Kv7.1/KCNE1) (Homo sapiens, UniProt P51787)
# Sequence (P51787 whole entry): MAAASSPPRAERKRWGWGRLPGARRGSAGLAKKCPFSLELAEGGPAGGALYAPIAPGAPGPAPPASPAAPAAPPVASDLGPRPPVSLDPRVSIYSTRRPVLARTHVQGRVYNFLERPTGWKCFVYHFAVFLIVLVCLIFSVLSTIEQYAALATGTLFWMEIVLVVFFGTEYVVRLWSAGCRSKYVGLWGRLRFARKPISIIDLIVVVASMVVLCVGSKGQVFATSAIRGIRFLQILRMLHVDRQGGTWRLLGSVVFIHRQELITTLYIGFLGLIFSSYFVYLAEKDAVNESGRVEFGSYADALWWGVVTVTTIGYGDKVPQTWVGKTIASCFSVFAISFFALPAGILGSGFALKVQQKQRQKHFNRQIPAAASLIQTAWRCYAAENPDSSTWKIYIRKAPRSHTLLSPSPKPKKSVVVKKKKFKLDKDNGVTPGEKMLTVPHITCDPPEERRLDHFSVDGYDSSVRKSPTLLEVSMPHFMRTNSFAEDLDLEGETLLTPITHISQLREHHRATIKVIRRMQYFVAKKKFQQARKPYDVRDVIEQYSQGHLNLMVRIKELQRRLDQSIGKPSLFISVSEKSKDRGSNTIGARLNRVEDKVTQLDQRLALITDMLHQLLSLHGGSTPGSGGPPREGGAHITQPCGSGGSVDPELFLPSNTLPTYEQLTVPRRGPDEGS
# method: Two-electrode voltage clamp of I Ks channel
# Format: cell-based
# experimental_conditions: K m of G max, Hill fit of dose response, pH 9.0, mean ± SEM
endpoint: pEC50
pEC50 (log units): -log10 of the concentration in mol/L.

# query: pEC50 of entry CC/C=C\C/C=C\C/C=C\C/C=C\C/C=C\C/C=C\CCC(=O)O [22:6Δ4,7,10,13,16,19, Docosahexaenoic acid (4,7,10,13,16,19)]
5.74

----------
# assay_target: wild type human I Ks channel (Kv7.1/KCNE1) (Homo sapiens, UniProt P51787)
# method: Two-electrode voltage clamp of I Ks channel
# Format: cell-based
# experimental_conditions: fitted maximum from dose response, pH 9.0, mean ± SEM
If the reported Max G max/G max0 (maximal conductance normalized to control) equals or exceeds 1, assign Yes. If not, assign No.

CC/C=C\C/C=C\C/C=C\C/C=C\C/C=C\C/C=C\CCC(=O)O ... Yes
CCC=CCC=CCC=CCCCC(=O)O ... No
CCCCC/C=C\C/C=C\CCCCCCCC(=O)O ... Yes
CCC=CCC=CCC=CCCCCCC(=O)O ... No

Confirm if Max G max/G max0 (maximal conductance normalized to control) reported for the molecule CCC=CCC=CCC=CCC=CCC=CCCCCCC(=O)O is 1 or above.
Yes
